Target: dTDP-4-dehydrorhamnose reductase (Mycobacterium tuberculosis (strain ATCC 25618 / H37Rv)) + dTDP-4-dehydrorhamnose 3,5-epimerase (Mycobacterium tuberculosis (strain ATCC 25618 / H37Rv)) (UniProt P9WH09+P9WH11)
Sequence (P9WH09 whole entry, looked up): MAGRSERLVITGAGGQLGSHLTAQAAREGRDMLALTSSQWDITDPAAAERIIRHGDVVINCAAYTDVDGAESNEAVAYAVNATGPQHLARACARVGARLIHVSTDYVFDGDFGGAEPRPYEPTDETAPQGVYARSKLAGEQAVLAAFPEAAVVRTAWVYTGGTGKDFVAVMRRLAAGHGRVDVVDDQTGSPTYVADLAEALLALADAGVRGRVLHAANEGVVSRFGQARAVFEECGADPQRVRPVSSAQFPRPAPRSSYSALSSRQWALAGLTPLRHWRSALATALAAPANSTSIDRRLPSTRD
Sequence (P9WH11 whole entry, looked up): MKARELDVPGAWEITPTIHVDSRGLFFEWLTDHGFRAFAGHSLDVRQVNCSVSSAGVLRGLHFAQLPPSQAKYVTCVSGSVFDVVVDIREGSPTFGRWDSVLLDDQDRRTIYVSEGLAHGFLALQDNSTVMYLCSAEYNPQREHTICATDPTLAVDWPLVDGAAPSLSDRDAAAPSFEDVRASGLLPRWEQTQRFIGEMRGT
Assay: M. tuberculosis RmlC/RmlD coupled enzyme inhibitors, primary screen, biochemical, compound mixtures, 384-well, from 1536-well plates (AID 1533)
Conditions: RmlC+RmlD coupled enzyme assay, percent inhibition; primary screen in compound mixtures; at 3.6 µM; active compounds read high
Screen size: about 160,000 compounds; about 45 (0.03%) were called active. This is one part of a sample in which actives are shown more often than they occur.
propertyMeasured: inhibition (%)
Form entry: value (%) — number only.

Worked examples follow.
* Clc1ccc2nc(-c3ccccc3)nc(C(Cl)Cl)c2c1 | 0.32
* O=C(NCc1ccc(F)cc1)C1CCC(CNc2c(N3CCOCC3)c(=O)c2=O)CC1 (stereo unspecified) | 43.3
* O=C(Cc1ccccc1Cl)N1CCN(c2ccccn2)CC1 | -5.39

Then this molecule:
What value of measured inhibition is listed for "CCOC(=O)CNc1nc(Cl)nc(Nc2ccccc2)n1" ? 0.72

Values were extracted from PubChem BioAssay AID1533.
